molecular target: human PD-L1 on CHO-K1 cells (human, UniProt Q9NZQ7 19-290); assay: cell-based or functional assay
Sequence (Q9NZQ7 19-290): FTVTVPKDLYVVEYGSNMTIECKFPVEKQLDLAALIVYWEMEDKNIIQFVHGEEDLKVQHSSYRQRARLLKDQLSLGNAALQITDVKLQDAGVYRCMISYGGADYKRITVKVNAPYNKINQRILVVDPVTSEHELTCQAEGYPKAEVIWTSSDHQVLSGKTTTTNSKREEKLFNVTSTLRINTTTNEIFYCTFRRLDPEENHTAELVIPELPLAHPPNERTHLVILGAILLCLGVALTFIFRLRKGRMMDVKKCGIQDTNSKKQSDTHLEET
Listed here are binders together with their documented EC50 of PD-L1-based blockade assay (luciferase reporter).
Give a bare numeral; the unit nM is implied.

Binder	Observed result
AS06750 sdAb (VHH, His6-tagged llama sdAb) VHH: AVQLVESGGGLVQAGDSLRLSCTASGRTFLTYAVGWFRQAPGTEREFVAGIRWSGGYTDYADSVKGRFTISRDNAKNTVYLQMNSLKPEDTAVYYCAAHRTIATIPEKYEYEYWGQGTQVTVSS	33.6

Let us examine a further case.
Given AS06775 sdAb (VHH, His6-tagged llama sdAb) VHH: QVQLVESGGGLVQAGDSLRLSCAASGRTFLTLAVGWFRQAPGTEREFVAGIRWSGSGTDYADSVKGRFTISRDNAKNTVYLQMNSLKPEDTAVYYCAAHTTIATIPEKYEYEYWGRGTQVTVSS , respond with its EC50 of PD-L1-based blockade assay (luciferase reporter).
75.5
